Values were extracted from patent US9000029B2.

Provide the recorded pIC50 for the entries that follow.
- Assay target: UniProt:O43614
- Sequence (O43614 whole entry): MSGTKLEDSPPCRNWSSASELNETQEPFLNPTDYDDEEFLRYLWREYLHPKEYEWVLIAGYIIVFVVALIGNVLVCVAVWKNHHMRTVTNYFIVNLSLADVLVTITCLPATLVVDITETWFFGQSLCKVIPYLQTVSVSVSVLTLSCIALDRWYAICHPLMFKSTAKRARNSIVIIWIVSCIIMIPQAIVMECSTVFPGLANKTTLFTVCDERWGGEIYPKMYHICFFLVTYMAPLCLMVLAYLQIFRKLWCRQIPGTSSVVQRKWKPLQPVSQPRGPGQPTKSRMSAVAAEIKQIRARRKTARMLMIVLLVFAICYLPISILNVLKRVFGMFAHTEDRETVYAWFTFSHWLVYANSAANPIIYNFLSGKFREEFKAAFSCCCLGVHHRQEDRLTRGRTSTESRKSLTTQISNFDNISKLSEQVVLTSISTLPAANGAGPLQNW
- Assay remarks: Intracellular calcium measurements (FLIPR), antagonism of orexin-A response
- Format: cell-based
- Test context: CHO cells, 3 nM orexin-A, compound incubation 10 min; read-out: IC50 Ox2
pIC50 field: float, defined as -log10 of concentration (mol/L).

Exam item: Value wanted: pIC50 (UniProt:O43614) of entry `CCOc1cccc(NC(=O)[C@@H]2CCCN2S(=O)(=O)c2ccc(OC)cc2)c1`
Marked response: 7.42

Exam item: Value wanted: pIC50 (UniProt:O43614) of entry `CSc1cccc(NC(=O)[C@@H]2CCCN2S(=O)(=O)c2ccc(Br)s2)c1`
Marked response: 8.00

Exam item: Value wanted: pIC50 (UniProt:O43614) of entry `COc1ccc(S(=O)(=O)N2CCC[C@H]2C(=O)Nc2cc(C(F)(F)F)cc(C(F)(F)F)c2)cc1`
Marked response: 7.17

Exam item: Value wanted: pIC50 (UniProt:O43614) of entry `CSc1cccc(NC(=O)[C@@H]2CCCN2S(=O)(=O)c2ccc3c(c2)OCCN3C)c1`
Marked response: 7.57
